# Test system: nude mice, LX-1 lung xenograft intrarenal, tumor weight T/C
# assay.details: NCI In Vivo Anticancer Drug Screen. Data for tumor model Human Lung LX-1 Xenograft (intrarenal inoculation) in NU/NU Swiss (nude) mice
# particulars: endpoint: mean tumor weight change; dose: 25.0 mg/kg/injection; schedule: Q01DX010 (sc); vehicle: water; higher = larger tumour
Records with an inconclusive call do not appear.
measurement.label: T/C

The following molecules have reported results that may help.
Asked: # value lookup — system nude mice, LX-1 lung xenograft intrarenal, tumor weight T/C, readout T/C, item "Cn1cnc([N+](=O)[O-])c1[Se]c1nc(N)nc2nc[nH]c12"
Given back: 68 % of control

Asked: Query CCCCCCCC(=O)N/N=C(\CO)[C@]1(O)Cc2c(O)c3c(c(O)c2[C@@H](OC2CC(N)C(O)C(C)O2)C1)C(=O)c1c(OC)cccc1C3=O (stereo not given in full) next
Given back: 63 % of control

Asked: Query CN1N=C(N)c2cn(C3OC(COP(=O)(O)O)C(O)C3O)c3ncnc1c23 (stereo not given) next
Given back: 109 % of control

Asked: Query "CC(/C=N/N=C(N)N)=N\N=C(N)N" next
Given back: 78 % of control

Here is the next item to consider.
Asked: # value lookup — system nude mice, LX-1 lung xenograft intrarenal, tumor weight T/C, readout T/C, item COc1cccc2c1C(=O)c1c(O)c3c(c(O)c1C2=O)CC(O)(C(=O)CO)CC3OC1CC(N)C(O)C(C)O1 (stereo not given)
Given back: 71 % of control
